Cited source for all entries: ChEMBL document CHEMBL5316318

Assay Procedure: Tmax in ICR mouse at 3 mg/kg, po measured for 24 hrs by LC-MS/MS analysis
Assay type: ADME, organism-based
Run Parameters: in vivo

Compound Structure String	Unit Tag	Tmax
O=C1C(Cl)=C(NCCN2CCOCC2)C(=O)c2ncccc21	min	19.8
CC(F)(F)C(=O)NC12CC(NC3=C(Cl)C(=O)c4ncccc4C3=O)(C1)C2	min	25.2
CC#CC(=O)NC12CC(NC3=C(Cl)C(=O)c4ncccc4C3=O)(C1)C2	min	90

====

Items are presented alongside their recorded Cmax.
Assay Procedure: Cmax in ICR mouse at 3 mg/kg, po measured for 24 hrs by LC-MS/MS analysis
Type: ADME, organism-based
Design: dose 3 mg/kg, time 24 hrs, route po
Run Parameters: in vivo

Compound Structure String	Unit Tag	Cmax
CC(F)(F)C(=O)NC12CC(NC3=C(Cl)C(=O)c4ncccc4C3=O)(C1)C2	ng/mL	707
CC#CC(=O)NC12CC(NC3=C(Cl)C(=O)c4ncccc4C3=O)(C1)C2	ng/mL	4780
O=C1C(Cl)=C(NCCN2CCOCC2)C(=O)c2ncccc21	ng/mL	21.1

====

System: MOLM-13
Assay Procedure: Antiproliferative activity against human MOLM-13 cells harboring wild type NSD2 assessed as inhibition of cell growth incubated for 6 days by CCK-8 assay
Type: functional, cell-based
Run Parameters: MOLM-13, 144 h

Compound Structure String	Unit Tag	IC50
CC#CC(=O)NC12CC(NC3=C(Cl)C(=O)c4ncccc4C3=O)(C1)C2	µM	3.17

====

Target Entity: Histone-lysine N-methyltransferase NSD2 (Homo sapiens, UniProt O96028)
Assay Procedure: Inhibition of N-terminal polyhistidine tagged human recombinant NSD2 SET domain (934 to 1241 residues) expressed in Escherichia coli using SAM as substrate preincubated for 30 mins followed by substrate addition and measured after 15 mins by MTase-Glo assay
pIC50: −log10 of the molar value.

Compound Structure String	pIC50
O=C1C(Cl)=C(NCCN2CCOCC2)C(=O)c2ncccc21	6.77

====

Assay Procedure: Observed clearance in ICR mouse at 1 mg/kg, iv measured for 24 hrs by LC-MS/MS analysis
Assay type: ADME, organism-based
Run Parameters: in vivo
Items are presented alongside their recorded clearance.
Experimental Endpoint: clearance (mL/min/kg)

Compound Structure String	Measured
CC#CC(=O)NC12CC(NC3=C(Cl)C(=O)c4ncccc4C3=O)(C1)C2	3.8
CC(F)(F)C(=O)NC12CC(NC3=C(Cl)C(=O)c4ncccc4C3=O)(C1)C2	33.4

====

Target Entity: Protein arginine N-methyltransferase 5 (Homo sapiens)
Sequence (O14744 whole entry): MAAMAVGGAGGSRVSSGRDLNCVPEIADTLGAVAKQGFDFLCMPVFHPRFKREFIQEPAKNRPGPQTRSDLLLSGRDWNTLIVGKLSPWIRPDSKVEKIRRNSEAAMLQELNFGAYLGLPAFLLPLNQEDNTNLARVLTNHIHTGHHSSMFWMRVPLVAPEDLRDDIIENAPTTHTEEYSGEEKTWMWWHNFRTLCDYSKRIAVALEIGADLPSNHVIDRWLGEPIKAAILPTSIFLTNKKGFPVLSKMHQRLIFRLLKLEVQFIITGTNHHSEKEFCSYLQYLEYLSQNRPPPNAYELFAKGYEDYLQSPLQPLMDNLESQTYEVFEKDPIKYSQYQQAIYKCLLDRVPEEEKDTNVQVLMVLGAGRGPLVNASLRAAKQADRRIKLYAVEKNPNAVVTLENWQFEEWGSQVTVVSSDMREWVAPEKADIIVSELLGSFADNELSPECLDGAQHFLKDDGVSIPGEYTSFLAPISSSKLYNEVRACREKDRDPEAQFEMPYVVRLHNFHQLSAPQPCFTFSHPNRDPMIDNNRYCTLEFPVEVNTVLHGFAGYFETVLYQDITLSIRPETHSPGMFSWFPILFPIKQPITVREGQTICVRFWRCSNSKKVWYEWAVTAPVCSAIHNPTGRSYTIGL

Compound Structure String	IC50
CC#CC(=O)NC12CC(NC3=C(Cl)C(=O)c4ncccc4C3=O)(C1)C2	> 10 µM

====

Target Entity: Histone-lysine N-methyltransferase NSD2 (Homo sapiens)
Assay Procedure: Inhibition of human NSD2 SET domain (948 to 1239 residues)-mediated mono-methylation activity assessed as reduction in H3K36me1 level incubated for 1 hr

Compound Structure String	IC50
COc1cc2nc(N3CCCN(C)CC3)nc(NC3CCN(Cc4ccccc4)CC3)c2cc1OC	41 µM

====

Target Entity: Histone-lysine N-methyltransferase NSD2 (Homo sapiens)
Sequence (O96028 whole entry): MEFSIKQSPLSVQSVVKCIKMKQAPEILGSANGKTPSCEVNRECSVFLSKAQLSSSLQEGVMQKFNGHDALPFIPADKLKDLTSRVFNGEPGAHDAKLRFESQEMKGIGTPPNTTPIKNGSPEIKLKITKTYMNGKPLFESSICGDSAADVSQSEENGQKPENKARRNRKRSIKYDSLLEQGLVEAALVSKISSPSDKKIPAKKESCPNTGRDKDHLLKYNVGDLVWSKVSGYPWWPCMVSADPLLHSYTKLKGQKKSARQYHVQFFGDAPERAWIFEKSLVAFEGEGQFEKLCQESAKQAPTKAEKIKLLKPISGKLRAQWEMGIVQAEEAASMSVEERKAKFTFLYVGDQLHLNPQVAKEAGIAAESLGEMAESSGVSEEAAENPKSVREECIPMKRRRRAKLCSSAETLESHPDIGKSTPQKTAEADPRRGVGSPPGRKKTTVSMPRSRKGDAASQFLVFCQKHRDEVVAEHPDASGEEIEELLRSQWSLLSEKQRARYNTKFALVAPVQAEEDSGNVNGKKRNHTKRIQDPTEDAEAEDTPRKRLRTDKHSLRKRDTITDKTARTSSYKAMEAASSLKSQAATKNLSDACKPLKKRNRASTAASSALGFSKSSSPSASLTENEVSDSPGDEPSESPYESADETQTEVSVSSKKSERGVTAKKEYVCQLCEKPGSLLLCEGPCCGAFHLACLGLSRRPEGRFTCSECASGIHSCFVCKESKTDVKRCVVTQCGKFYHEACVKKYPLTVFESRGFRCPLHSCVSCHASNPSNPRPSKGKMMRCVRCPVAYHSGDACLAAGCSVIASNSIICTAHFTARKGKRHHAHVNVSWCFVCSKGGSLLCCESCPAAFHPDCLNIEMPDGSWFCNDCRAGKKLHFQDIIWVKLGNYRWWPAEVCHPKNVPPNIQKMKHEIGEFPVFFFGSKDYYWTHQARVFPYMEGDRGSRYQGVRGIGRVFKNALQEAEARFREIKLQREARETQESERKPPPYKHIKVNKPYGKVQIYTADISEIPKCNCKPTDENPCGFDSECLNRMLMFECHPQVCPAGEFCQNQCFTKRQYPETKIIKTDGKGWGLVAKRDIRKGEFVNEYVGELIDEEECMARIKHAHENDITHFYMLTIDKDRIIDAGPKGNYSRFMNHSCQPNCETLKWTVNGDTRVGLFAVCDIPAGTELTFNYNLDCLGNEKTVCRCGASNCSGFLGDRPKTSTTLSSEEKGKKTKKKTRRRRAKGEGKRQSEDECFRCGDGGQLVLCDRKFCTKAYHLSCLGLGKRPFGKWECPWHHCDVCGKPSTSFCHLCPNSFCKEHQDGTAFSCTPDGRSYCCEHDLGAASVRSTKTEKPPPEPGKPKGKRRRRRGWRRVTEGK
Assay Procedure: Inhibition of recombinant human NSD2 (941 to 1240 residues) using SAM as substrate incubated for 3 hrs by AlphaLISA assay
pIC50: −log10 of the molar value.
Overview of reported pIC50 across a group of compounds:

Compound	Result Qualifier	pIC50
CC(F)(F)C(=O)NCCC1CCN(C2=C(Cl)C(=O)c3ncccc3C2=O)CC1	=	5.87
O=C1C(Cl)=C(NC2CCc3ccccc32)C(=O)c2ncccc21 (stereo not drawn)	=	6.68
CC(F)(F)C(=O)NCCC1CCN(C2=C(Cl)C(=O)c3cccnc3C2=O)CC1	=	5.63
CC#CC(=O)NC12CC(NC3=C(Cl)C(=O)c4cccnc4C3=O)(C1)C2	=	6.60
C[C@@](O)(C(=O)N1CCC(O)(CCNC2=C(Cl)C(=O)c3cccnc3C2=O)CC1)C(F)(F)F	=	6.62
CC(C)(O)[C@H](F)CNC1=C(Cl)C(=O)c2ccc(Cl)nc2C1=O	=	6.60
CC(C)(O)[C@H](F)CNC1=C(Cl)C(=O)c2ccc(N3CC(O)C3)nc2C1=O	<	5.00
CC(C)(O)[C@H](F)CNC1=C(Cl)C(=O)c2ccc(N3C[C@@H](O)[C@H](O)C3)nc2C1=O	=	5.91
